molecular target: HLA-A*03:01; test: IEDB peptide-MHC binding, purified MHC/competitive/radioactivity; filed as Kd, often an IC50 or EC50 that approximates it; bounds were set here for any values at or beyond the usual limits of such assays; conditions: source organism: SARS coronavirus Tor2
Provide the recorded Kd for the entries that follow.
Give bare numbers, in nM.

VMCGGSLYVK	58.4
MLVYCFLGY	136
ATAHSELAK	11.6

Next up:
For GALHLYFDK on HLA-A*03:01, measured Kd was 486

---

target: HLA-A*03:01; assay: IEDB peptide-MHC binding, purified MHC/direct/fluorescence; filed as Kd, often an IC50 or EC50 that approximates it; bounds were set here for any values at or beyond the usual limits of such assays; settings: source organism: Vibrio parahaemolyticus
REPORTED ENDPOINT: Kd

MLDQFGVSY	≥ 20 µM

Recorded Kd (sequence AFDWPELEF ): ≥ 20 µM

---

molecular target: HLA-A*02:17; assay: IEDB peptide-MHC binding, purified MHC/competitive/radioactivity; filed as Kd, often an IC50 or EC50 that approximates it; bounds were set here for any values at or beyond the usual limits of such assays; conditions: source organism: Dengue virus 3 China/80-2/1980
REPORTED ENDPOINT: Kd (nM)
Numbers only, in nM.

Recorded Kd (sequence ALFSGVSWIM ): 202

---

molecular target: HLA-B*15:42; experiment: IEDB peptide-MHC binding, purified MHC/competitive/fluorescence; filed as Kd, often an IC50 or EC50 that approximates it; bounds were set here for any values at or beyond the usual limits of such assays; settings: source organism: Homo sapiens
REPORTED ENDPOINT: Kd

For RVMAPRALL on HLA-B*15:42, measured Kd was ≥ 20 µM

---

molecular target: HLA-B*18:01; experiment: IEDB peptide-MHC binding, purified MHC/competitive/fluorescence; filed as Kd, often an IC50 or EC50 that approximates it; bounds were set here for any values at or beyond the usual limits of such assays; details: source organism: Vibrio parahaemolyticus AQ3810
REPORTED ENDPOINT: Kd

For KVGYFQHGA on HLA-B*18:01, measured Kd was ≥ 20 µM

---

biological target: HLA-B*48:01; assay: IEDB peptide-MHC binding, purified MHC/direct/fluorescence; filed as Kd, often an IC50 or EC50 that approximates it; bounds were set here for any values at or beyond the usual limits of such assays; conditions: source organism: Influenza A virus (A/Wisconsin/4755/1994(H1N1))
REPORTED ENDPOINT: Kd

For DPKKTGGPI on HLA-B*48:01, measured Kd was ≥ 20 µM

---

molecular target: HLA-A*02:03; test: IEDB peptide-MHC binding, purified MHC/competitive/fluorescence; filed as Kd, often an IC50 or EC50 that approximates it; bounds were set here for any values at or beyond the usual limits of such assays; conditions: source organism: Entamoeba histolytica HM-1:IMSS
REPORTED ENDPOINT: Kd

Recorded Kd (sequence IEAKINVAD ): ≥ 20 µM

---

molecular target: HLA-B*57:01; experiment: IEDB peptide-MHC binding, purified MHC/competitive/fluorescence; filed as Kd, often an IC50 or EC50 that approximates it; bounds were set here for any values at or beyond the usual limits of such assays; details: source organism: Vibrio vulnificus YJ016
REPORTED ENDPOINT: Kd (nM)
Answers are plain numbers, in nM.

For IALPVAWLF on HLA-B*57:01, measured Kd was 62.4

All values here come from the Immune Epitope Database (IEDB).
